system: MS2 coat protein; assay: apparent KD of MS2 coat protein; higher = weaker reporter binding; conditions: Eterna round: R107; input ligand: none
apparent KD of MS2 coat protein by entry:
Supply the numeric figure in nM, leaving out any unit text.

Example results:
sequence input: UAUACAUGAGGAUCACCCAUGUGCCAUGAUACCAGACAUGAAAAUGUCCCUUGGCAGCAUGGGAGAUGUAUAGCGGGAAACCCGA [Turany]
apparent KD of MS2 coat protein, nM: 38.9
--
sequence input: UGUAUGUGAUCUGAUACCAGUCCAACUGGUAAAGCGUGAGGAUCACCCAUGCAAAAUUGGGACCCUUGGCAGCAGAUCGCAUACU
apparent KD of MS2 coat protein, nM: 337
--
sequence input: GUUUUAUCAAAAGAUGAAACAGUGGGUGAACGAGGACCGGUACGGCCGCCACUCGGACAUGAGGAUCACCCAUGUCCAUGUGAAA [AstrosExyTryA#13]
apparent KD of MS2 coat protein, nM: 18.4
--
sequence input: GUACAUGAGGAUCACCCAUGUAUAGUUGAAGGAGCGACCGGUGGGUCAGGUAGGUCGCAGCGCAUGGCGUCAACCCGUGUAUGCC [#1 Exclusion - Arginine A Attempt #27 (Inspired by Pi)]
apparent KD of MS2 coat protein, nM: 17.2
--
sequence input: UGGGUACAUGAGGAUCACCCAUGUACUGAAGGAGCGAGAAUUAUCUCAGGUAGGUCGCAGACAUGAGGAUCACCCAUGUAGUGGG [Exclusion Arginine A GF 13]
apparent KD of MS2 coat protein, nM: 18

The measured apparent KD of MS2 coat protein associated with AACAUGAGGAUCACCCAUGUCCUCGUGAUUCGAGGACCGGUACGGCCGCCACUCGGUCCUCGCGAGGAGGAGUCAAAGACUCCAA [Omei Trp A SS A v1] reads 144

The measured apparent KD of MS2 coat protein associated with ACAUGAGGAUCACCCAUGUGCAGAACGGAUACCAGCGUGCUGGUACGCCCUUGGCAGCCGGACAUGAGGAUCACCCAUGUGUGGA [Exclusion Theophylline A GF28] reads 42.1

The measured apparent KD of MS2 coat protein associated with GAGGGUGAAUCUCUAGUCCGUUUGACGGAUACCAGCGAGAGGUAUCGCCCUUGGCAGCCGACGACAUGAGGAUCACCCAUGUUAA [#07 Exclusion-TheophyllineA] reads 40.6

The measured apparent KD of MS2 coat protein associated with CUAAGAGUAGGAAGGAGCGACAUGAGGAUCACCCAUGUGGCUCUCAUGGCCCGGGUCUUAUGUCAGGUAGGUCGCCUACUGUUUA [Solave] reads 14.4

The measured apparent KD of MS2 coat protein associated with UUUUAAGGGAUCGGAGCUGGUAGCAGAGAUACCAGAGUAGUAAUGCUCCCUUGGCAGCUCAGUACAUGAGGAUCACCCAUGUUUU [Exclusion Theophylline A GF26] reads 17.6

The measured apparent KD of MS2 coat protein associated with AGUGACUACAUCUGGAAUUAAGGUAGGGAAGGAGCGCGGUAAGACGCAGGUAGGUCGCCCUACAUGAGGAUCACCCAUGUGAUGU [XARG-A 28] reads 354

The measured apparent KD of MS2 coat protein associated with AUUAUCGUAGGUUAAAGUUUAGAAACUGAAGGAGCGUGGUAUUACACAGGUAGGUCGCAGAUUUUACAUGAGGAUCACCCAUGUU [JR_ExcArginiA_Sub010] reads 22.4
